Value source: ChEMBL document CHEMBL1201862

- Test system: SK-MEL-5
- Experimental Details: NCI tumour cell line growth inhibition, 48 h
The source made the active and inactive calls. Cut-off read from the data, not from the text of the source: active = GI50 up to about 1.1 µM and inactive = higher.
The reply should name one outcome from active, inactive

Could you check what this test reported for CC(C)N(C(=O)C12C3C4C5C3C1(C(=O)N(C(C)C)C(C)C)C5(C#N)C42)C(C)C (stereo unspecified) ?
inactive

What outcome does the record of this test show for CCCCC1=CC1(C#N)[N+](=O)[O-] (stereo unspecified) ?
inactive

Test call, this molecule: CC(=O)/N=C1/N(/C=C2\C(=O)Oc3ccccc3C2=O)C(=O)/C(=C/c2ccc(NC(C)=O)cc2)N1C
inactive

How was CCOC(=O)c1ccc(C(=O)/C(C#N)=C2\CCCN2)n1C classified in this test?
inactive

What did the test return for C=CC1CCC[N+]1(CC(=O)OCC)Cc1ccccc1 (stereo unspecified) ?
inactive

Outcome logged for CCOc1c(/N=N/c2ccccc2Cl)c(-c2ccccc2)nn1C(=S)S in this assay:
inactive

# fetch the recorded call for CCCn1cc2c3c(cccc31)C1C=C(C)CN(C)C1C2 (stereo unspecified) here
inactive

Could you please tell me the result logged for NCCCCNc1ccc2c(=O)[nH][nH]c(=O)c2c1 in this assay?
inactive

Please indicate how the test categorized CC(C)C(Nc1c2ccccc2[n+](C)c2ccccc12)C(=O)O (stereo unspecified) .
inactive

Given CN(C)/N=N/c1ccc([N+](=O)[O-])cc1C(N)=O , state the outcome it received in this test.
inactive

Test call for this molecule, please: COc1cccc(/C=C/C(=O)N2CC(CCl)c3c2cc(N)c2ccccc32)c1 (stereo unspecified)
active

====

- Test system: U-251
- Experimental Details: NCI tumour cell line growth inhibition, 48 h
Calls of active or inactive are those of the source. Rule as the data show it: active = GI50 up to about 1.1 µM and inactive = higher.
Please reply with one of these outcomes: Y for active, N for inactive

Field: outcome | Entry: CCOC(=O)c1cc(=O)oc2c1N(C)c1ncccc1N2
N

Which outcome was entered for the compound C=C1CCC2C(C)(CO)C(O)CCC2(C)C1CC(O)C1=CCOC1=O (stereo not given) in this test?
N

Identify the outcome logged in this assay for the compound shown: Cc1ccc(S(=O)(=O)N2CCCSCC2)cc1
N

Short answer needed: outcome of this test for Brc1ccc2c(c1)-c1nc3nc4c(cc3cc1CC2)CCc1ccc(Br)cc1-4 ?
N

Per the assay record, what outcome was assigned to COc1cccc(/C=C/C(=O)N2CC(CCl)c3c2cc(N)c2ccccc32)c1 (stereo not given) ?
Y

Query: recorded result category for CSCCOC(=O)C(=[N+]=[N-])c1ccc([N+](=O)[O-])cc1 in this test
N

Tell me the recorded outcome of this test for COC[C@@H](Cc1ccc(OC)c(OC)c1)[C@@H](COC)Cc1ccc(OC)c(OC)c1 .
N

Give the logged outcome of this assay for the following compound: COc1ccc2c(c1)CC[C@@H]1C2CC[C@]2(C)C(=O)N(N)C(=O)CC12 (stereo not given in full)
N

# lookup: test call for Cc1ccc2nc(NC(=O)/C(=N\NC(=S)NN)C3C(=O)NC(=S)NC3=O)sc2c1
N

Test call, this compound: CC(=O)/N=C1/N(/C=C2\C(=O)Oc3ccccc3C2=O)C(=O)/C(=C/c2ccc(NC(C)=O)cc2)N1C
N

====

- System: SW-620
- Experimental Details: NCI tumour cell line growth inhibition, 48 h
The source made the active and inactive calls. Cut-off read from the data, not from the text of the source: active = GI50 up to about 1.1 µM and inactive = higher.
Respond only with the outcome that fits, drawn from active, inactive

# outcome recorded in this test, key = Nc1ncc2c(n1)-c1ccccc1OC2N1CCCC1 (stereo unspecified)
inactive

Recorded call for COc1cc(OC)c(OC)cc1/C=C1\C=Cc2ccccc21 ?
inactive

Could you check what this test reported for CCCCCCCCCCCCCc1nnn[nH]1 ?
inactive

Tell me the assay call for O=C(O)/C(=C\c1ccncc1)c1cccc2ccccc12 please.
inactive

// outcome(item) with item = O=c1c2ccccc2nc(N/N=C/c2ccc(Cl)cc2)n1-c1ccccc1
inactive

Could you please tell me the result logged for C=C1C(=O)OC2C3OC(C)(CCC(O)C3COC(C)=O)CC(OC(=O)/C(=C/C)COC(C)=O)C12 (stereo unspecified) in this assay?
active

Which outcome did this test record for the compound O=C(Nc1cccc(C(=O)NCCCO)c1)/C(=C/c1ccccc1)NC(=O)c1ccccc1 ?
inactive

Hi, sorry to bother you, what did the test record for Cc1ccc(C2SCC(=O)N2c2ccc(-c3ccc(-n4c(-c5ccccc5)nc5ccccc5c4=O)cc3)cc2)cc1 (stereo unspecified) ?
inactive

Lab log entry: O=[N+]([O-])/C=C/c1cc(Cl)c(/C=C/[N+](=O)[O-])cc1Cl — outcome as called in the assay?
active

Field: outcome | Entry: COC(=O)C(=O)C(C(=O)C(=O)Nc1ccccc1C(N)=O)c1nc2ccc(C(=O)c3ccccc3)cc2nc1O (stereo unspecified)
inactive

Write down the call the test reported for this compound. Item: C=C1C(=O)O[C@@H]2[C@H]3O[C@]3(C)CCC=C(C)CC[C@@H]12
inactive

Which outcome did this test record for the compound CCC(C)C1NC(=O)C(NC(=O)C(CC(C)C)N(C)C(=O)[C@@H]2C=CCN2C(=O)[C@H](C)O)C(C)OC(=O)[C@H](Cc2ccc(OC)cc2)N(C)C(=O)[C@@H]2CCCN2C(=O)[C@H](CC(C)C)NC(=O)C(C)C(=O)[C@H](C(C)C)OC(=O)CC1O (stereo partly specified) ?
active

What call does the record list for Clc1sc(Cl)c2c1[C@@H](Cl)C[C@@H]2Cl ?
inactive

I'd appreciate the recorded outcome for C/N=C(\N)c1ccc(NC(=N)c2ccc(C(=N)Nc3ccc(/C(N)=N/C)cc3)cc2)cc1 from this test.
inactive

Could you kindly confirm the outcome this assay logged for COc1ccc(-c2c(C(=O)Nc3ccccc3)c(-c3ccccc3)n(C3OC(CO)C(O)C(O)C3O)c(=S)c2C#N)cc1 (stereo unspecified) ?
inactive

Given O=C1NC(N2CCCC(CO)C2)=N/C1=C\c1ccc(Cl)cc1 (stereo unspecified) , state the outcome it received in this test.
inactive

Record lookup: outcome of this test for NC1C2C(CC(=O)O)OCC=C3CN4CCC1(C(=O)C(=O)O)C4CC32 (stereo unspecified) ?
inactive

Query: recorded result category for CCCCC1=CC1(C#N)[N+](=O)[O-] (stereo unspecified) in this test
inactive

What outcome does the record of this test show for COc1cc(/C=C/c2ccc(O)c(OC)c2)cc(OC)c1 ?
inactive

Any idea what this test logged for COc1cc(S(=O)(=O)Nc2nc(-c3ccc(N4C(=O)CSC4c4cccs4)cc3)cs2)ccc1Cl (stereo unspecified) ?
inactive

Assay result, entry CCCCCCCCC(=O)NCCN(CCN)C(=O)CCCCCCCC — outcome?
inactive
